- measurement_target: UniProtKB Q9NPC2
- Sequence (Q9NPC2 whole entry): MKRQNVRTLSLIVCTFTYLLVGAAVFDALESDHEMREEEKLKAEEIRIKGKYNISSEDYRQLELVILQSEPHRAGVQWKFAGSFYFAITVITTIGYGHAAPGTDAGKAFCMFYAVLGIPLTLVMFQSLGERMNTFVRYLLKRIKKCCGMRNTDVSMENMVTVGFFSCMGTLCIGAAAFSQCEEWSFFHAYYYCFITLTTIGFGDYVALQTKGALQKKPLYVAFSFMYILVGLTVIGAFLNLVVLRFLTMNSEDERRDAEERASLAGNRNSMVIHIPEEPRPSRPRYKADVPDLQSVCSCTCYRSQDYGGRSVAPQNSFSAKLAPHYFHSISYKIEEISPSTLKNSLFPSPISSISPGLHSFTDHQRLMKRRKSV
- measurement_protocol: Inhibition of recombinant TASK-3 in stably transfected CHO cells (voltage-sensitive dye, FLIPR)
- Type: cell-based
- particulars: depolarization induced by 40 mM potassium chloride, Table 2A
pIC50: −log10 of the molar value.
As shown below, each of these molecules has a reported pIC50 value.

{"molecule": "O=C(C1CCCCC1)N1CCN(Cc2c(-c3ccc(Br)cc3)nc3ccccn23)CC1 [Example 9]", "pIC50": 6.70}
{"molecule": "Cc1ccc(F)cc1C(=O)N1CCN(Cc2c(-c3ccc(Br)cc3)nc3ccccn23)CC1 [Example 15]", "pIC50": 6.42}
{"molecule": "COc1ccc(Cl)c(C(=O)N2CCN(Cc3c(-c4ccc(Cl)cc4)nc4ccccn34)CC2)c1 [Example 29]", "pIC50": 7.00}
{"molecule": "COc1cccc(C(=O)N2CCN(Cc3c(-c4ccc(Br)cc4)nc4ccccn34)CC2)c1 [Example 5]", "pIC50": 6.42}
{"molecule": "COc1cccc(C(=O)N2CCN(Cc3c(-c4ccc(Cl)cc4)nc4ccccn34)CC2)n1 [Example 3]", "pIC50": 7.55}
{"molecule": "CC(C)c1ccc(-c2nc3ccccn3c2CN2CCN(C(=O)C3CCCC3)CC2)cc1 [Example 54]", "pIC50": 6.65}
{"molecule": "COc1cccc(C(=O)N2CCN(Cc3c(-c4ccc(Br)cc4)nc4ccccn34)CC2)n1 [Example 47]", "pIC50": 7.74}
{"molecule": "COc1ccc(F)cc1C(=O)N1CCN(Cc2c(-c3ccc(Br)cc3)nc3ccccn23)CC1 [Example 13]", "pIC50": 6.46}
{"molecule": "N#Cc1ccc(-c2nc3ccccn3c2CN2CCN(C(=O)C3CCCC3)CC2)cc1 [Example 62]", "pIC50": 5.51}
{"molecule": "CC(C)c1ccc(-c2nc3ccccn3c2CN2CCN(C(=O)c3ccccc3F)CC2)cc1 [Example 53]", "pIC50": 6.00}
{"molecule": "O=C(C1CCC1)N1CCN(Cc2c(-c3ccc(Br)cc3)nc3ccccn23)CC1 [Example 11]", "pIC50": 6.62}
{"molecule": "COc1ccc(Br)c(C(=O)N2CCN(Cc3c(-c4ccc(Cl)cc4)nc4ccccn34)CC2)n1 [Example 42]", "pIC50": 7.89}
{"molecule": "O=C(c1cc(F)ccc1Cl)N1CCN(Cc2c(-c3ccc(Cl)cc3)nc3ccccn23)CC1 [Example 16]", "pIC50": 6.96}
{"molecule": "Cc1ccccc1C(=O)N1CCN(Cc2c(-c3ccc(Cl)cc3)nc3ccccn23)CC1 [Example 22]", "pIC50": 6.85}
{"molecule": "O=C(C1CCCC1)N1CCN(Cc2c(-c3ccc(F)cc3)nc3ccccn23)CC1 [Example 48]", "pIC50": 6.08}
{"molecule": "O=C(c1cccc(C(F)(F)F)c1)N1CCN(Cc2c(-c3ccc(Cl)cc3)nc3ccccn23)CC1 [Example 25]", "pIC50": 6.09}
{"molecule": "Cc1ccc(-c2nc3ccccn3c2CN2CCN(C(=O)C3CCCCC3)CC2)cc1 [Example 57]", "pIC50": 5.54}
